# system: HLA B*1503 (Homo sapiens, UniProt P01889, A329T/A93T/A95T/C349S/D201E/D98Y/E187L/E204Q/K202T/N87E/Q94N/R155S/R180L/S121R/S35A/V306I/V36M/Y140S/Y91S)
# protocol-description: biochemical
Where a SMILES comes first, the peptide text is derived from it.
measured-quantity: IC50 (nM)
Note: unit nM is implicit; provide only the numeric part.

* CSCC[C@H](NC(=O)[C@@H](N)CCCCN)C(=O)N[C@H](C(=O)N[C@@H](Cc1ccc(O)cc1)C(=O)N[C@@H](C)C(=O)N[C@@H](CC(C)C)C(=O)N[C@@H](CC(C)C)C(=O)N[C@@H](CC(C)C)C(=O)N[C@@H](Cc1ccc(O)cc1)C(=O)O)C(C)C [3102.1336] (H-KMVYALLLY-OH) | 2.7

// switching to the query molecule
input: Input CC[C@H](C)[C@H](NC(=O)[C@@H](NC(=O)[C@H](CC(N)=O)NC(=O)[C@H](CCSC)NC(=O)[C@@H](N)CO)[C@@H](C)O)C(=O)N[C@@H](CCCCN)C(=O)N[C@@H](CCC(N)=O)C(=O)N[C@@H](CO)C(=O)N[C@@H](Cc1ccccc1)C(=O)O [3102.1144] (H-SMNTIKQSF-OH) , output reported IC50.
output: 17

###

# system: H-2 D^d (Mus musculus)
# Sequence (P01900 whole entry, looked up): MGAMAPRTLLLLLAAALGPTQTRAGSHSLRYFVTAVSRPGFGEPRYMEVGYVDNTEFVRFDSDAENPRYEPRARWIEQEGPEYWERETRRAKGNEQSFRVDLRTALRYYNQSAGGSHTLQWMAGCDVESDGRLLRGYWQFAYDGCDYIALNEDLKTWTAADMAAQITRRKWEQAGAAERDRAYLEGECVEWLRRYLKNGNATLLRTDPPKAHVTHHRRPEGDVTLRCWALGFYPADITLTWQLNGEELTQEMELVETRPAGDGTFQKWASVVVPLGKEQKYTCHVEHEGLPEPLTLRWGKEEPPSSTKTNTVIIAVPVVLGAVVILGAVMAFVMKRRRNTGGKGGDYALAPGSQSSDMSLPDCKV
# Format: binding
measured-quantity: Normalized average relative binding affinity (ARB), H-2 Dd

* XXYXXXXXX [3064.0060] | 0.0028
* QXXXXXXXX [3064.0014] | 0.39
* XIXXXXXXX [3064.0028] | 0.018
* CXXXXXXXX [3064.0002] | 0.26
* VXXXXXXXX [3064.0018] | 0.80

input: Input XDXXXXXXX [3064.0023] , output reported Normalized average relative binding affinity (ARB), H-2 Dd.
output: 0.013

input: Input XXPXXXXXX [3064.0053] , output reported Normalized average relative binding affinity (ARB), H-2 Dd.
output: 1.0

input: Input XYXXXXXXX [3064.0040] , output reported Normalized average relative binding affinity (ARB), H-2 Dd.
output: 0.013

input: Input RXXXXXXXX [3064.0015] , output reported Normalized average relative binding affinity (ARB), H-2 Dd.
output: 0.41

input: Input XXRXXXXXX [3064.0055] , output reported Normalized average relative binding affinity (ARB), H-2 Dd.
output: 0.0031

input: Input XTXXXXXXX [3064.0037] , output reported Normalized average relative binding affinity (ARB), H-2 Dd.
output: 0.019

input: Input XXLXXXXXX [3064.0050] , output reported Normalized average relative binding affinity (ARB), H-2 Dd.
output: 0.0040

input: Input SXXXXXXXX [3064.0016] , output reported Normalized average relative binding affinity (ARB), H-2 Dd.
output: 0.24

###

# system: HLA B*1503 (Homo sapiens, UniProt P01889, A329T/A93T/A95T/C349S/D201E/D98Y/E187L/E204Q/K202T/N87E/Q94N/R155S/R180L/S121R/S35A/V306I/V36M/Y140S/Y91S)
# protocol-description: biochemical
Where a SMILES comes first, the peptide text is derived from it.
Let's look at some compounds and their measured pIC50.
Reminder that pIC50 means the negative base-10 logarithm of the concentration expressed in mol/L.

Answered cases to consult:
* CC[C@H](C)[C@H](NC(=O)[C@H](CC(N)=O)NC(=O)[C@H](CCSC)NC(=O)[C@@H](NC(=O)[C@H](CCSC)NC(=O)[C@@H](N)CC(C)C)[C@@H](C)O)C(=O)N[C@H](C(=O)N[C@@H](CC(N)=O)C(=O)N[C@@H](Cc1ccccc1)C(=O)O)C(C)C [3102.1344] (H-LMTMNIVNF-OH) | 7.77
* CC(C)[C@H](NC(=O)[C@H](CCC(N)=O)NC(=O)[C@@H](N)CO)C(=O)N[C@@H](CCCCN)C(=O)N[C@@H](CS)C(=O)N[C@@H](CS)C(=O)N[C@@H](Cc1c[nH]cn1)C(=O)N[C@@H](Cc1ccc(O)cc1)C(=O)N[C@@H](Cc1ccccc1)C(=O)O [3102.1126] (H-SQVKCCHYF-OH) | 9.04
* CC[C@H](C)[C@H](NC(=O)[C@@H]1CCCN1C(=O)CNC(=O)[C@H](Cc1ccccc1)NC(=O)[C@H](Cc1ccccc1)NC(=O)[C@@H](NC(=O)[C@H](CCCCN)NC(=O)[C@@H](N)CO)C(C)C)C(=O)N[C@@H](Cc1ccc(O)cc1)C(=O)O [3102.1134] (H-SKVFFGPIY-OH) | 9.00

// switching to the query compound
input: Input CSCC[C@H](NC(=O)[C@H](CC(N)=O)NC(=O)CNC(=O)[C@H](CS)NC(=O)CNC(=O)[C@H](Cc1ccc(O)cc1)NC(=O)[C@H](CCCCN)NC(=O)[C@@H](N)CCCNC(=N)N)C(=O)N[C@@H](Cc1ccccc1)C(=O)O [3102.1308] (H-RKYGCGNMF-OH) , output reported pIC50.
output: 8.89

The reported numbers originate from paper PMC2248166.
